molecular target: 5-hydroxytryptamine receptor 1D (Homo sapiens, UniProt P28221)
Sequence (P28221 whole entry): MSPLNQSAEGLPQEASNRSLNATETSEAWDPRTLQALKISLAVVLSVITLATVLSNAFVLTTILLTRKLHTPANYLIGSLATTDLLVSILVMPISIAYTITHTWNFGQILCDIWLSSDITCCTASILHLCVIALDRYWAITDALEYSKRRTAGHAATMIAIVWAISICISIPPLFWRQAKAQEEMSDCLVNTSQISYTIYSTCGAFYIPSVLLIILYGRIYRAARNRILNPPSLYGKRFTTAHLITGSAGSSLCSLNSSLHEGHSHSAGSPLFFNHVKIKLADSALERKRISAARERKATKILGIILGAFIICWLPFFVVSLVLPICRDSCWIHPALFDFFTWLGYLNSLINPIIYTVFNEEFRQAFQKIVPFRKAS
Could you mark each record class 1 if its Ki falls strictly under 2 nM, and class 0 if it equals or exceeds it?

INSERT INTO results (structure_smiles_string, system_under_test, class_assignment) VALUES
  ('CC(C)c1ccc2[nH]cc(CCN3CCCC3)c2c1', '5-hydroxytryptamine receptor 1D (Homo sapiens, UniProt P28221)', 'class 0'),
  ('CCc1ccc2[nH]cc(CCN(C)C)c2c1', '5-hydroxytryptamine receptor 1D (Homo sapiens, UniProt P28221)', 'class 0'),
  ('CCc1ccc2[nH]cc(C[C@H]3CCCN3C)c2c1', '5-hydroxytryptamine receptor 1D (Homo sapiens, UniProt P28221)', 'class 1'),
  ('CC(C)c1ccc2[nH]cc(C[C@H]3CCCN3C)c2c1', '5-hydroxytryptamine receptor 1D (Homo sapiens, UniProt P28221)', 'class 1'),
  ('CC(C)(C)c1ccc2[nH]cc(CCN3CCCC3)c2c1', '5-hydroxytryptamine receptor 1D (Homo sapiens, UniProt P28221)', 'class 0'),
  ('Cc1ccc2[nH]cc(C[C@H]3CCCN3C)c2c1', '5-hydroxytryptamine receptor 1D (Homo sapiens, UniProt P28221)', 'class 0'),
  ('CN1CCC[C@@H]1Cc1c[nH]c2ccc(C(C)(C)C)cc12', '5-hydroxytryptamine receptor 1D (Homo sapiens, UniProt P28221)', 'class 1'),
  ('CCc1ccc2[nH]cc(CCN3CCCC3)c2c1', '5-hydroxytryptamine receptor 1D (Homo sapiens, UniProt P28221)', 'class 0');

Check if Ki falls below 2 nM for Cn1cc(CCN)c2cc(C(C)(C)C)ccc21 .
class 1

Check if Ki falls below 2 nM for CC(C)c1ccc2[nH]cc(CCN(C)C)c2c1 .
class 1

* * *

species: Oryctolagus cuniculus; assay: The compound was tested for its […] activity using rabbit saphenous vein (RSV) preparation; assay type: functional
OBSERVABLE: EC50

INSERT INTO assay_data (structure_smiles_string, observable, test_result) VALUES
  ('Cc1ccc2[nH]cc(C[C@H]3CCCN3C)c2c1', 'EC50', '102 nM');

Go through the items and report each one's EC50.
1. CC(C)c1ccc2[nH]cc(CCN3CCCC3)c2c1
2. CCc1ccc2[nH]cc(C[C@H]3CCCN3C)c2c1
3. CN1CCC[C@@H]1Cc1c[nH]c2ccc(C(C)(C)C)cc12
4. CCc1ccc2[nH]cc(CCN(C)C)c2c1

1. 440 nM
2. 14.7 nM
3. 51.8 nM
4. 350 nM

* * *

organism: Oryctolagus cuniculus; assay: The compound was tested for its […] activity using rabbit saphenous vein (RSV) preparation; assay type: functional
OBSERVABLE: pEC50
Give bare numbers, as −log10 of the molar value.

Worked examples follow.
INSERT INTO measurements (structure_smiles_string, test_result) VALUES
  ('CNS(=O)(=O)Cc1ccc2[nH]cc(CCN(C)C)c2c1', 6.76),
  ('CC(C)(C)c1ccc2[nH]cc(CCN3CCCC3)c2c1', 5.93);

Would you kindly look at the next entry?
Check the records and state pEC50 for CC(C)c1ccc2[nH]cc(C[C@H]3CCCN3C)c2c1
7.54
